B1: LINE1-full (parent)
chain: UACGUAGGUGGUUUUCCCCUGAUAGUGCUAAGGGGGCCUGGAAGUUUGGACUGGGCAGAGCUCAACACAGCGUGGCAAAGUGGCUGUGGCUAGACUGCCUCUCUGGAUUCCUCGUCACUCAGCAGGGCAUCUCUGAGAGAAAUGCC

# Variants of: B1
# measurement_protocol: self-cleavage, relative activity (ratio to wild type); higher = more cleavage; in vitro, sequencing; the parent is a self-cleaving ribozyme
measurement_label: self-cleavage
Response field accepts a number only; no unit should be typed.

[
  {
    "variant_code": "C3A U109C",
    "self-cleavage": 0.53
  },
  {
    "variant_code": "U15C U91A",
    "self-cleavage": 0.81
  },
  {
    "variant_code": "G11A A141U",
    "self-cleavage": 1.05
  },
  {
    "variant_code": "G36A U119A",
    "self-cleavage": 1.36
  },
  {
    "variant_code": "U12C G35A",
    "self-cleavage": 1.62
  }
]

Lab note: measured self-cleavage of C28U A140U was 0.95

Item: U104A A138G | self-cleavage: 1.34

Documented self-cleavage of U12A C113U : 1.36

Ref: the RNAGym collection of RNA variant scans (doi:10.7554/elife.90254)
